Target: T1, GFP-9S library array, motif 4 ND D124W (synthetic construct, D124W)
T1 chain: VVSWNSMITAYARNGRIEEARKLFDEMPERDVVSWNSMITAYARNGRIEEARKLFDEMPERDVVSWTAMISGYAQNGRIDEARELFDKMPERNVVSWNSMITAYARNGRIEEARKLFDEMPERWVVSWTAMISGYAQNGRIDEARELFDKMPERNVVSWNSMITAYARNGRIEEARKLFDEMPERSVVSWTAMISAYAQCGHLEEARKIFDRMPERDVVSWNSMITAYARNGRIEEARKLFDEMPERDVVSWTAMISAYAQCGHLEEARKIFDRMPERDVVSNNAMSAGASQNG
Experiment: high-throughput RNA pulldown from lysate on Ni-NTA beads; HRP: 50 mM Tris pH 8, 150 mM NaCl, 1 mM beta-mercaptoethanol, 50 ug/ml BSA, 3 ug/ml yeast RNA, 0.5% heparin; ITC and FP: Tris pH 8, 200 mM KCl, 5% glycerol; MST: 50 mM Tris pH 8, 200 mM NaCl, 1 mM DTT, BSA, heparin, 0.05% Tween 20
Conditions: tags: N-terminal His-eGFP; label: 5' Cy5
Please go through the items and note down their Kd.

Could you tell me which Kd is on file for AUUACACGUGA (ssRNA) [Cy5-rpoA] ?
78.7 nM

Next:
Could you tell me which Kd is on file for AUUAGACGUGA (ssRNA) [Cy5-rpoA-G] ?
89.4 nM

Data provenance is paper PMC8809517.
